# ASSAY TARGET: human TLR7 (Homo sapiens (Human))
# Sequence (Q9NYK1 27-1049): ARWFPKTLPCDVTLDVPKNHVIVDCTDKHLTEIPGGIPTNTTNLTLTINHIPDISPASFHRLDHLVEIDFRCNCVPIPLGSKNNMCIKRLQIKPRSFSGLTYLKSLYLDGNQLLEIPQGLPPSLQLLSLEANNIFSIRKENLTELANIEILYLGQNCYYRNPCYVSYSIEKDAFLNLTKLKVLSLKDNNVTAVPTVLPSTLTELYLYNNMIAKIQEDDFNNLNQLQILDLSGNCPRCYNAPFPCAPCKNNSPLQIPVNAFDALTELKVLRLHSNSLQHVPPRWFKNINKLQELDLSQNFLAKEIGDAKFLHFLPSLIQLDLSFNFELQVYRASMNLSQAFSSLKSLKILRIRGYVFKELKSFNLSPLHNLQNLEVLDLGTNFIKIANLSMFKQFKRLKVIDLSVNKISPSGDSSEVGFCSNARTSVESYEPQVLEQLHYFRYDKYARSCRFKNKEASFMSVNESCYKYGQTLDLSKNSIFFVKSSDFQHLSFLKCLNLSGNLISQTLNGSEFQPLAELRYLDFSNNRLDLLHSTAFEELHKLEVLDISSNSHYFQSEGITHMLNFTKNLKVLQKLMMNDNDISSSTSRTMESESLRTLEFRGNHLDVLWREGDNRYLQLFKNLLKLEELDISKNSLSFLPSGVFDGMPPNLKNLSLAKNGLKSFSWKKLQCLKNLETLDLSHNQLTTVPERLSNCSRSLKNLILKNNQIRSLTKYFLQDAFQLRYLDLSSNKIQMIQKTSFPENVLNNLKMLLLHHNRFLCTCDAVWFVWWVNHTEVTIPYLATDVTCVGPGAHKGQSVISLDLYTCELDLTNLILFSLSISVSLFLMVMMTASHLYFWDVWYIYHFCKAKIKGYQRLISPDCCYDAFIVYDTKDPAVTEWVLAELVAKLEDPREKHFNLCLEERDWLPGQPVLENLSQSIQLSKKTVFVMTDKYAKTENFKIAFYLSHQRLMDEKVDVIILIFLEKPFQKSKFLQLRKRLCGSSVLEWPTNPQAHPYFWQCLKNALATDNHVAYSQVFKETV
# MEASUREMENT PROTOCOL: TLR7 inhibition reporter assay (HEK-Blue SEAP reporter, gardiquimod stimulation)
# Assay type: cell-based
# MEASUREMENT PARAMETERS: HEK-Blue cells overexpressing human TLR7, gardiquimod 7.5 μM
pIC50: −log10 of the molar value.
Parameter: pIC50. Scope: all listed entries.
MEASUREMENT TYPE: pIC50

COMPOUND	ASSAY TARGET	EXPERIMENTAL RESULT
CCN(CCN(C)C)C(=O)c1ccc2[nH]c(-c3cc(C)nc(C)c3)c(C(C)C)c2c1	human TLR7 (Homo sapiens (Human))	8.54
Cc1cc(-c2[nH]c3ccc(C(=O)N4CC5CN(C(=O)CN(C)C)CC5C4)cc3c2C(C)C)ccn1 (centres unmarked)	human TLR7 (Homo sapiens (Human))	6.06
CCN(CCN(C)C)C(=O)c1ccc2[nH]c(-c3cc(C)nc(C)c3)c(CC(F)F)c2c1	human TLR7 (Homo sapiens (Human))	7.72
Cc1cc(-c2[nH]c3ccc(C(C)(C)C(=O)N4CCC5(CCNC5)C4)cc3c2C(C)C)ccn1 (centres unmarked)	human TLR7 (Homo sapiens (Human))	7.21
CCc1c(-c2ccc(OC)c(OC)c2)[nH]c2ccc(C(=O)N3CCC(n4c(=O)[nH]c5ccccc54)CC3)cc12	human TLR7 (Homo sapiens (Human))	6.10
COc1ccc(-c2[nH]c3ccc(C(=O)N4CCCN(C)CC4)cc3c2C(C)C)cc1OC	human TLR7 (Homo sapiens (Human))	7.35
Cc1cc(-c2[nH]c3ccc(C(C)(C)C(=O)N[C@@H]4CCNC4)cc3c2C(C)C)ccn1	human TLR7 (Homo sapiens (Human))	7.24
Cc1cc(-c2[nH]c3ccc(C(C)C(=O)NC4CCC5CNCC54)cc3c2C(C)C)ccn1 (centres unmarked) [Example 187]	human TLR7 (Homo sapiens (Human))	6.65

----------
# ASSAY TARGET: human TLR8 (Homo sapiens (Human), UniProt Q9NR97)
# Sequence (Q9NR97 27-1041): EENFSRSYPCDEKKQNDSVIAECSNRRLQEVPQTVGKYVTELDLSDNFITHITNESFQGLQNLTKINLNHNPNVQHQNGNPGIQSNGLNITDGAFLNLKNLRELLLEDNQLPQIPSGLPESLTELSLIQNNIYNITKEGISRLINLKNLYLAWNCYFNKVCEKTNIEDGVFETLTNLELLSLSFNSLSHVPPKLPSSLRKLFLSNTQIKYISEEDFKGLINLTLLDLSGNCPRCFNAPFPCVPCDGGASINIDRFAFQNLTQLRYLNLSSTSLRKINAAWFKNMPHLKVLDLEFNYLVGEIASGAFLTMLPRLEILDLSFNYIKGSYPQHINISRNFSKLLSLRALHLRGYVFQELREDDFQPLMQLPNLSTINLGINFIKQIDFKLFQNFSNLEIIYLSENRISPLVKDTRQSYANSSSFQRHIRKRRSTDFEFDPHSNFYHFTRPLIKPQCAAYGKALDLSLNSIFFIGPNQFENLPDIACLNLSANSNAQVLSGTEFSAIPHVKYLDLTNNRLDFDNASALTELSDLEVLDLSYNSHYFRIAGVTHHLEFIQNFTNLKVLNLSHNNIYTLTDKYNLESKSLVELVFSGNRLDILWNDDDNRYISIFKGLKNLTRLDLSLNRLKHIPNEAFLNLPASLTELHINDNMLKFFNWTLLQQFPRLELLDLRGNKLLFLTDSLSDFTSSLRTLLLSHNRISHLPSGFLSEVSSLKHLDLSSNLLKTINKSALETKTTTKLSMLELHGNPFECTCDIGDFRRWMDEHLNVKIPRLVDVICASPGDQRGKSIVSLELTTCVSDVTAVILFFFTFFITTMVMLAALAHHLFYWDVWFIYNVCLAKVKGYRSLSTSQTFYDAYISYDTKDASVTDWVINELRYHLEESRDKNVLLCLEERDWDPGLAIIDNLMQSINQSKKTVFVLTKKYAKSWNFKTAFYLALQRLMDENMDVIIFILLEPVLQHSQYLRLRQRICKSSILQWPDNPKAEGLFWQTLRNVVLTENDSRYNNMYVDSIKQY
# MEASUREMENT PROTOCOL: TLR8 inhibition reporter assay (HEK-Blue SEAP reporter, R848 stimulation);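 note: SEAP driven by IFN-β minimal promoter with NF-κB and AP-1 sites, 22 h incubation, compounds 0.05 nM–50 µM, inhibition scaled between agonist plus DMSO and reference inhibitor wells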
# MEASUREMENT PARAMETERS: read-out: TLR8 IC50; HEK-Blue cells overexpressing human TLR8, R848 15.9 μM, SEAP reporter
// classify: if (IC50 < 0.1 µM) criterion met else criterion not met

COMPOUND	ASSIGNED CLASS
CCc1c(-c2ccc(OC)c(OC)c2)[nH]c2ccc(C(=O)NCc3ccc(N)cc3)cc12	criterion not met
CCc1c(-c2ccc(OC)c(OC)c2)[nH]c2ccc(C(=O)N3CC[C@H](N(C)C)C3)cc12	criterion not met
Cc1cc(-c2[nH]c3ccc(C(C)(C)C(=O)N4CC5CNC5C4)cc3c2C(C)C)ccn1 (stereo not shown)	criterion not met
COc1ccc(-c2[nH]c3ccc(C(=O)N4CC5CN(C(C)C)CC5C4)cc3c2C(C)C)cc1OC (stereo not shown)	criterion met
Cc1cc(-c2[nH]c3ccc(C(C)C(=O)NC4CCNCC4)cc3c2C(C)C)ccn1 (stereo not shown)	criterion not met
CCc1c(-c2ccc(OC)c(OC)c2)[nH]c2ccc(C(=O)NCc3ccco3)cc12	criterion not met
CCc1c(-c2ccc(OC)c(OC)c2)[nH]c2ccc(C(=O)NC[C@@H](F)C(C)(C)O)cc12	criterion not met
CCc1c(-c2ccc(OC)c(OC)c2)[nH]c2ccc(C(=O)N3CCCN(C(C)=O)CC3)cc12	criterion not met
CCc1c(-c2ccc(OC)c(OC)c2)[nH]c2ccc(C(=O)N3CCCN(c4ncccn4)CC3)cc12	criterion not met
Cc1cc(-c2[nH]c3ccc(C(C)(C)C(=O)N(C)C4CCCNC4)cc3c2C(C)C)ccn1 (stereo not shown)	criterion met
Cc1cc(-c2[nH]c3ccc(C(C)(C)C(=O)N4CCNCC4)cc3c2C(C)C)ccn1	criterion met
CCc1c(-c2ccc(OC)c(OC)c2)[nH]c2ccc(C(=O)N3CCN(CCc4ccccc4)CC3)cc12	criterion met
Cc1cc(-c2[nH]c3ccc(C(=O)NCCN(C)C)cc3c2C(C)C)cc(C)n1	criterion met
Cc1cc(-c2[nH]c3ccc(C(=O)N4CC5CN(C(C)C)CC5C4)cc3c2C(C)C)cc(C)n1 (stereo not shown)	criterion met
Cc1cc(-c2[nH]c3ccc(C(C)(C)C(=O)N(C)C4CN5CCC4CC5)cc3c2C(C)C)ccn1 (stereo not shown)	criterion not met
Cc1cc(-c2[nH]c3ccc(C(=O)N4CC5CNCC5C4)cc3c2CC(F)F)cc(C)n1 (stereo not shown)	criterion not met
